test system: MDCK (normal kidney epithelial cells); assay: MTT cytotoxicity assay, normal cell line MDCK; type: cell-based; details: 24 h treatment, mean ± SD
Property: IC50 (µM)
One number for each entry, in µM.

// O=C1[O][Pt]2([NH][C@@H]3CCCC[C@H]3[NH]2)[O]C1=O [Oxaloplatin, oxaloplatin, reference compound] : IC50 value = 24

---

system: MCF7 (human breast adenocarcinoma); assay: MTT cytotoxicity assay, MCF7; type: cell-based; conditions: MTT, 24 h treatment, mean ± SD
Property: pIC50
Numbers only, as −log10 of the molar value.

// O=C1[O][Pt]2([NH][C@@H]3CCCC[C@H]3[NH]2)[O]C1=O [Oxaloplatin, oxaloplatin, reference compound] : pIC50 value = 5.07
